The values you see were collected from patent US12384776B2.

Target: Nanoluciferase-BRD9 fusion protein (3×FLAG-NLuc-BRD9) in SYO-1 cells (Homo sapiens (Human), UniProt Q9H8M2)
Sequence (Q9H8M2 whole entry, the tested form may be a part): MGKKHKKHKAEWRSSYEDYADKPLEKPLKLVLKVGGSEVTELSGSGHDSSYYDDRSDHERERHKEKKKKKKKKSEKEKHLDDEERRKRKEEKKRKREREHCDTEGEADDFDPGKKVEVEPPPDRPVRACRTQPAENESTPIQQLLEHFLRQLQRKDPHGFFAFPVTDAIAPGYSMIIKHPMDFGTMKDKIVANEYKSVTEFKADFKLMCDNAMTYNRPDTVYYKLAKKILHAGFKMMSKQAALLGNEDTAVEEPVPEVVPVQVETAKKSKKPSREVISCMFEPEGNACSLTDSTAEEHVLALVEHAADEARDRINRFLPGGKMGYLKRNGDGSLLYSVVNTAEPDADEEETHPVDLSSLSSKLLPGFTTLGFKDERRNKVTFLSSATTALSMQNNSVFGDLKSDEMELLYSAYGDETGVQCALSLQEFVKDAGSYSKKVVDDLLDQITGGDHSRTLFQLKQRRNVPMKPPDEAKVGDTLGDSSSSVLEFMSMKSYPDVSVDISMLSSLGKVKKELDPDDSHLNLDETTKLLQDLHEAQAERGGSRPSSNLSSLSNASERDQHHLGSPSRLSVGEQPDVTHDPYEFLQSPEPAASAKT
Test: SYO1 BRD9 NanoLuc degradation assay
Type: cell-based
Details: SYO-1 cells expressing 3×FLAG-NLuc-BRD9, 6 hours incubation, top dose 1 μM
Method: Procedure: A stable SYO-1 cell line expressing 3×FLAG-NLuc-BRD9 was generated. On day 0 cells were seeded in 30 μL media into each well of 384-well cell culture plates. The seeding density was 8000 cells/well. […] Nanoluciferase activity was measured by adding 15 μL of freshly prepared Nano-Glo Luciferase Assay Reagent (Promega N1130), shaking the plates for 10 minutes and reading the bioluminescence using an EnVision reader. […]
Items are presented alongside their recorded IC50.

Here's what some known entries look like.
- compound: "COc1cc(-c2cn(C)c(=O)c3c2CCN(C(=O)NC2CC4(CCN(CCCCN5CCN(c6ccc7c(c6)C(=O)N(C6CCC(=O)NC6=O)C7=O)CC5)C4)C2)C3)cc(OC)c1CN(C)C (centres unmarked)"
  IC50: "10 to 100 nM"
- compound: "CNC(=O)N1CCc2c(-c3cc(OC)c(CN4CCOC(CCN5CCN(c6ccc7c(c6)C(=O)N(C6CCC(=O)NC6=O)C7=O)CC5)C4)c(OC)c3)cn(C)c(=O)c2C1 (centres unmarked)"
  IC50: "< 10 nM"
- compound: "COc1cc(-c2cn(C)c(=O)c3c2CCN(C(=O)NCCN2CCC4(C2)CN(c2ccc5c(c2)C(=O)N(C2CCC(=O)NC2=O)C5=O)C4)C3)cc(OC)c1CN(C)C (centres unmarked)"
  IC50: "100 to 1000 nM"
- compound: "CNC(=O)N1CCc2c(-c3cc(OC)c(CN4CCC(CN5CCC6(CC5)CN(c5ccc7c(c5)C(=O)N(C5CCC(=O)NC5=O)C7=O)C6)CC4)c(OC)c3)cn(C)c(=O)c2C1 (centres unmarked)"
  IC50: "< 10 nM"

The value of IC50 measured for the compound COc1cc(-c2cn(C)c(=O)c3c2CCN(C(=O)NCCCN2CCC4C(C2)CN4c2ccc4c(c2)C(=O)N(C2CCC(=O)NC2=O)C4=O)C3)cc(OC)c1CN(C)C (centres unmarked) turned out to be < 10 nM

The value of IC50 measured for the compound COc1cc(-c2cn(C)c(=O)c3c2CCN(C(=O)NC2CC4(C2)CN(CCCCN2CCN(c5ccc6c(c5)C(=O)N(C5CCC(=O)NC5=O)C6=O)CC2)C4)C3)cc(OC)c1CN(C)C (centres unmarked) turned out to be ≥ 1000 nM

The value of IC50 measured for the compound CNC(=O)N1CCc2c(-c3cc(OC)c(CN4CCC(CCN(C)C5CCN(c6ccc7c(c6)C(=O)N(C6CCC(=O)NC6=O)C7=O)CC5)CC4)c(OC)c3)cn(C)c(=O)c2C1 (centres unmarked) turned out to be < 10 nM

The value of IC50 measured for the compound COc1cc(-c2cn(C)c(=O)c3c2CCN(C(=O)NC2CC4(CCN(CCOc5ccc6c(c5)C(=O)N(C5CCC(=O)NC5=O)C6=O)CC4)C2)C3)cc(OC)c1CN(C)C (centres unmarked) turned out to be < 10 nM

The value of IC50 measured for the compound CNC(=O)N1CCc2c(-c3cc(OC)c(CN4CCC(CN5CCC6(CC5)CN(c5ccc7c(c5)CN(C5CCC(=O)NC5=O)C7=O)C6)CC4)c(OC)c3)cn(C)c(=O)c2C1 (centres unmarked) turned out to be < 10 nM

The value of IC50 measured for the compound CNC(=O)N1CCc2c(-c3cc(OC)c(CN4CC5(CCN(C(C)(C)C#Cc6ccc7c(c6)C(=O)N(C6CCC(=O)NC6=O)C7=O)CC5)C4)c(OC)c3)cn(C)c(=O)c2C1 (centres unmarked) turned out to be 100 to 1000 nM

The value of IC50 measured for the compound "CNC(=O)N1CCc2c(-c3cc(OC)c(CN4CCN(C5CNC5)CC4)c(OC)c3)cn(C)c(=O)c2C1" turned out to be ≥ 1000 nM
